Molecular target: human DGKα (Homo sapiens (Human), UniProt P23743)
Sequence (P23743 whole entry, looked up): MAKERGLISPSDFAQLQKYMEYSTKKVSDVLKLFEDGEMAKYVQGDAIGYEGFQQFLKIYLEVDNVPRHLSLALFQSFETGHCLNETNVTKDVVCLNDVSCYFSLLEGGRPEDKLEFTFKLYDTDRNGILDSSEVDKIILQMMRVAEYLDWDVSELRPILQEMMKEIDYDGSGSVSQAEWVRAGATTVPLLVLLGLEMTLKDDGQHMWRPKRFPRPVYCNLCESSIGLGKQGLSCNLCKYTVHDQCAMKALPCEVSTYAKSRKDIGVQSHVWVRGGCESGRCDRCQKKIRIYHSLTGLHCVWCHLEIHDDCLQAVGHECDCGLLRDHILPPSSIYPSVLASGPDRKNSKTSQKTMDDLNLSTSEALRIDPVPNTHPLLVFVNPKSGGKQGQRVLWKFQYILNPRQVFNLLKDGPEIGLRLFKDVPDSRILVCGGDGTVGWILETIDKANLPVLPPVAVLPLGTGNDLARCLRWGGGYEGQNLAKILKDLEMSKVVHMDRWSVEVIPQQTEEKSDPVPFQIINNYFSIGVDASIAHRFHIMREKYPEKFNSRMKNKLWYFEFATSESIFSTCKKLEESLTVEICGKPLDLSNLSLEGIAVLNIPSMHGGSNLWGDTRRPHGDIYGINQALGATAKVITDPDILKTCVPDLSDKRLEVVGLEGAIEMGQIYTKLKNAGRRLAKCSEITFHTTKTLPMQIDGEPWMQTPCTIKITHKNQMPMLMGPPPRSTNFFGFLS
Test: DGKα LIPGLO assay (extruded liposome substrate, ADP-Glo luminescence)
Type: biochemical
Details: liposome assay; read-out: DGK alpha LIPGLO IC50
property: IC50 (µM)

As a guide, the following entries are already answered.
>  <compound>
C[C@@H]1CN(c2nc(=O)n(C)c3ccc(C#N)nc23)[C@@H](C)CN1Cc1ccc(F)cc1Cl

>  <measured.value>
0.92

$$$$
>  <compound>
CC[C@H]1CN(C(c2ccc(F)cc2)c2ccc(C(F)(F)F)cn2)[C@H](CC)CN1c1nc(=O)n(C)c2ccc(C#N)nc12 (single isomer, unassigned) [Example 1]

>  <measured.value>
0.016

$$$$

P: CCC(c1ccc(OC(F)(F)F)cc1)N1C[C@H](CC)N(c2nc(=O)n(C)c3ccc(C#N)nc23)C[C@H]1CC (single isomer, unassigned) [Example 36]
Q: CC[C@H]1CN(C(c2ccc(F)cc2)c2ccon2)[C@H](CC)CN1c1nc(=O)n(C)c2ccc(C#N)nc12 (single isomer, unassigned) [Example 34]
R: CC(c1ccc(F)c(F)c1)N1C[C@H](C)N(c2nc(=O)n(C)c3ccc(C#N)nc23)C[C@H]1C (single isomer, unassigned) [Example 149]
S: CC[C@H]1CN(C(C)c2ccc(C3CC3)cc2)[C@H](CC)CN1c1nc(=O)n(C)c2ccc(C#N)nc12 (single isomer, unassigned) [Example 29]
Put the items in order so that reported IC50 rises from first to last. Form entry: labels listed in requested order.
P, S, Q, R
(P: 0.016 µM, S: 0.04 µM, Q: 0.62 µM, R: 4.56 µM)
